The origin of these recorded values is patent US10183011B2.

- study_system: H1 histamine receptor (Homo sapiens, UniProt P35367)
- Sequence (P35367 whole entry): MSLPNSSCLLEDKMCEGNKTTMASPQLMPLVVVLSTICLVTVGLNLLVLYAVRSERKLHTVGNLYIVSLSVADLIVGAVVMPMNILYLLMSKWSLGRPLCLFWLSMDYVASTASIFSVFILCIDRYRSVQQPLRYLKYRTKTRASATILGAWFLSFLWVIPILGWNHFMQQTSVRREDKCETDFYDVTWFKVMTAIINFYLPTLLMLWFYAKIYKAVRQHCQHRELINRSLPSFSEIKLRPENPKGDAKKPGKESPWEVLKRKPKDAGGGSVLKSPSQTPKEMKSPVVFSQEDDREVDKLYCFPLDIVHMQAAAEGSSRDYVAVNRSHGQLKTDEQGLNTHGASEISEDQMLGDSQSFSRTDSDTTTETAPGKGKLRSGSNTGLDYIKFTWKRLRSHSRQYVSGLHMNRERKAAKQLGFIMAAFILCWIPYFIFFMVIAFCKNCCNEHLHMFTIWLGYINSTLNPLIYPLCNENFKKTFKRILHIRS
- protocol: Binding to the H1 histamine receptor
- experimental_parameters: both enantiomers
recorded_metric: IC50

Entry OC(CNc1ccccc1)Cn1c2ccc(Br)cc2c2cc(Br)ccc21 (stereo not shown) ; IC50 = > 10 µM

---

- protocol: Pharmacokinetic analysis in plasma and whole brain tissue
- Type: in vivo, mouse
- experimental_parameters: mouse, plasma; after IP delivery; read-out: plasma terminal half life (converted)
recorded_metric: half-life (h)
Give the value in h but do not write h after it.

The recorded half-life for OC(CNc1ccccc1)Cn1c2ccc(Br)cc2c2cc(Br)ccc21 (stereo not shown) [Example 45 Compound] is 6.7

---

- Tested on: neural precursor cells in the subgranular zone of the dentate gyrus
- protocol: In vivo pro-neurogenic efficacy/neuroprotection assay: intracerebroventricular infusion, BrdU incorporation in the dentate gyrus
- Parameters: species or system mouse (C57/Bl6)
- experimental_parameters: direct administration into the brain via Alzet minipumps for one week, 10 μM unless stated
recorded_metric: pro-neurogenic activity in the in vivo hippocampal neurogenesis assay

What the record says about Cc1cc(C)n(CC(O)Cn2c3ccc(Br)cc3c3cc(Br)ccc32)n1 (stereo not shown) : pro-neurogenic activity in the in vivo hippocampal neurogenesis assay is active in both

Value of measured pro-neurogenic activity in the in vivo hippocampal neurogenesis assay for the entry OC(CSc1ccccc1)Cn1c2ccc(Br)cc2c2cc(Br)ccc21 (stereo not shown) : active in both
